- System: stress ulcer formation
- ASSAY SUMMARY: WIS: Restraint and Water Immersion Stress-Induced Ulcer Inhibition Test
- Assay type: in vivo, rat (male Crj:SD or Slc:SD)
- TEST SETTINGS: rat, 100 mg/kg oral, 7 hours stress
Threshold rule: WIS: ulcer formation inhibitory rate greater than or equal to 60% is 1; below that, -1.

(Q) Threshold query (WIS: ulcer formation inhibitory rate >= 60%) on `CC(C)Cc1cc(C(=O)N2CCN(CC(C)C)CC2)ccc1OCc1ccc(Cl)cc1`
(A) 1

(Q) Please indicate if the recorded WIS: ulcer formation inhibitory rate for `CC(C)Cc1cc(C(=O)N2CCN(CC(C)C)CC2)ccc1OCc1ccccc1F` meets or exceeds 60%.
(A) 1

(Q) Form field: WIS: ulcer formation inhibitory rate at least 60%? Entry: `CC(C)Cc1cc(C(=O)N2CCN(CCOC(=O)c3ccc4c(c3)OCO4)CC2)ccc1OCc1ccc(F)cc1`
(A) -1

(Q) Quick check, WIS: ulcer formation inhibitory rate >= 60%? `CC(C)Cc1cc(C(=O)N2CCN(CC(C)C)CC2)ccc1OCc1ccc(F)cc1F.Cl`
(A) 1

(Q) Is the recorded value of WIS: ulcer formation inhibitory rate equal to or greater than 60% for this molecule? `CC(C)Cc1cc(C(=O)N2CCN(CC(C)C)CC2)ccc1OCc1ccc([N+](=O)[O-])cc1.Cl`
(A) 1

(Q) Has `CC(C)Cc1cc(C(=O)N2CCN(CC(C)C)CC2)ccc1OCc1ccc(C#N)cc1.Cl` a recorded WIS: ulcer formation inhibitory rate greater than or equal to 60%?
(A) 1

(Q) API: above_or_equal(metric=WIS: ulcer formation inhibitory rate, cutoff=60%) for item `CC(C)Cc1cc(C(=O)N2CCN(CC(C)C)CC2)ccc1OCc1ccccc1F.Cl`
(A) 1

(Q) Has `CC(C)Cc1cc(C(=O)N2CCN(CC(C)C)CC2)ccc1OCc1ccc(F)c(F)c1` a recorded WIS: ulcer formation inhibitory rate greater than or equal to 60%?
(A) 1

(Q) Tell me whether WIS: ulcer formation inhibitory rate is at least 60% here: `CC(C)CN1CCN(C(=O)c2ccc(OCc3ccc(F)cc3)c([N+](=O)[O-])c2)CC1.Cl`
(A) -1

(Q) # bool: WIS: ulcer formation inhibitory rate of `COc1cc(C(=O)N2CCN(CC(C)C)CC2)ccc1OCc1ccc(F)cc1.Cl` >= 60%
(A) -1

(Q) Does `CC(C)Cc1cc(C(=O)N2CCN(CC(C)C)CC2)ccc1OCc1ccccc1` have a reported WIS: ulcer formation inhibitory rate of at least 60%?
(A) 1

(Q) Does WIS: ulcer formation inhibitory rate meet or surpass 60% for `CC(C)CN1CCN(C(=O)c2ccc(OCc3ccc(F)cc3)cc2)CC1.Cl` ?
(A) 1

(Q) Quick check: does `CC(C)Cc1cc(CC(=O)N2CCN(CC(C)C)CC2)ccc1OCc1ccccc1` have WIS: ulcer formation inhibitory rate greater than or equal to 60%?
(A) 1

(Q) Decide: is the reported value of WIS: ulcer formation inhibitory rate for `Cc1cccc(COc2ccc(C(=O)N3CCN(CC(C)C)CC3)cc2CC(C)C)c1F.Cl` equal to or greater than 60%?
(A) 1

(Q) Textbook exercise: given the entry `CC(C)Cc1cc(C(=O)N2CCN(CCO)CC2)ccc1OCc1ccc(F)cc1` , state whether its WIS: ulcer formation inhibitory rate is greater than or equal to 60%.
(A) 1

(Q) Is reported WIS: ulcer formation inhibitory rate greater than or equal to 60% here: `C=C(C)Cc1cc(C(=O)N2CCN(CC(C)C)CC2)ccc1OCc1ccc(F)cc1.Cl`
(A) 1

(Q) Given `COc1ccc(COc2ccc(C(=O)N3CCN(CC(C)C)CC3)cc2CC(C)C)cc1` , state whether its WIS: ulcer formation inhibitory rate is at least 60%.
(A) 1

(Q) Test whether the molecule `CC(C)Cc1cc(C(=O)N2CCN(CC(C)C)CC2)ccc1OCc1ccc(F)c(F)c1.Cl` records WIS: ulcer formation inhibitory rate of 60% or higher.
(A) 1

----------
- ASSAY SUMMARY: MTT: Cell Damaging and Protecting Effect Test
- Type: cell-based, rabbit (male Japanese White)
- TEST SETTINGS: rabbit, gastric mucosal cells, MTT: cell damaging rate
PROPERTY LABEL: cytotoxicity at 4 h, 100 µM (%)
Numbers only here, please. The scale is %.

Note to self: cytotoxicity at 4 h, 100 µM recorded for `CC(C)Cc1cc(CC(=O)N2CCN(CC(C)C)CC2)ccc1OCc1ccccc1` was -55

----------
- System: gastric corpus mucosa cells
- ASSAY SUMMARY: MTT: Cell Damaging and Protecting Effect Test
- Type: cell-based, rabbit (male Japanese White)
- TEST SETTINGS: final concentration 10^-4 M, 4 hours; smaller value is better; 100 µM
PROPERTY LABEL: MTT: cell damaging rate (%)
State just the number; it will be interpreted in %.

Looking up CC(C)CN1CCN(C(=O)c2ccc(OCc3ccc(F)cc3)cc2)CC1.Cl [Example 2] , I found its MTT: cell damaging rate recorded as -6

Item: CC(C)Cc1cc(C(=O)N2CCN(CC(C)C)CC2)ccc1OCc1ccc(F)cc1F.Cl [Example 24] | MTT: cell damaging rate: -126

MTT: cell damaging rate measured on CC(C)Cc1cc(C(=O)N2CCN(CC(C)C)CC2)ccc1OCc1ccccc1F [Example 18] = -33

Lab note: CC(C)Cc1cc(C(=O)N2CCN(CC(C)C)CC2)ccc1OCc1ccc(F)cc1.Cl [Example 22] gave MTT: cell damaging rate of -4

// recorded MTT: cell damaging rate for CC(C)Cc1cc(C(=O)N2CCN(CC(C)C)CC2)ccc1OCc1ccc(F)cc1F [Example 27] : -119

So for CC(C)Cc1cc(C(=O)N2CCN(CC(C)C)CC2)ccc1OCc1ccc(F)cc1.O=C(O)C(=O)O [Example 25] , the logged MTT: cell damaging rate turned out to be -28

MTT: cell damaging rate in this record for CC(C)CN1CCN(C(=O)c2ccc(OCc3ccc(F)cc3)cc2)CC1 [Example 5] : -84

GET /value?item= CC(C)Cc1cc(C(=O)N2CCN(CC(C)C)CC2)ccc1OCc1ccc(F)cc1 [Example 21] &field=MTT: cell damaging rate returns -65

Field MTT: cell damaging rate (entry CC(C)Cc1cc(C(=O)N2CCN(CC(C)C)CC2)ccc1OCc1ccccc1F.Cl [Example 19] ) reads -55

Measured MTT: cell damaging rate, CC(C)Cc1cc(C(=O)N2CCN(CC(C)C)CC2)ccc1OCc1ccc(F)c(F)c1 [Example 26] : 29

----------
- Tested on: stress ulcer formation
- ASSAY SUMMARY: WIS: Restraint and Water Immersion Stress-Induced Ulcer Inhibition Test
- Type: in vivo, rat (male Crj:SD or Slc:SD)
- TEST SETTINGS: rat, 100 mg/kg oral, 7 hours stress
PROPERTY LABEL: WIS: ulcer formation inhibitory rate (%)
Provide the reading as a plain figure in %.

Given item `CC(C)Cc1cc(C(=O)N2CCN(CC(C)C)CC2)ccc1OCc1ccc(F)cc1` , the value recorded as its WIS: ulcer formation inhibitory rate is 84

In plain terms, `CC(C)CN1CCN(C(=O)c2ccc(OCc3ccc(F)cc3)cc2)CC1` has a documented WIS: ulcer formation inhibitory rate of 59

Reported WIS: ulcer formation inhibitory rate for `CC(C)CN1CCN(C(=O)c2ccc(OCc3ccc(F)cc3)c(N)c2)CC1.Cl.Cl` was 88

Reported WIS: ulcer formation inhibitory rate of `CC(C)Cc1cc(CN2CCN(CC(C)C)CC2)ccc1OCc1ccc(F)cc1.Cl.Cl` : 82

Query `CC(C)Cc1cc(C(=O)N2CCN(CC(C)C)CC2)ccc1OCc1ccc(F)cc1.O=C(O)C(=O)O` yields WIS: ulcer formation inhibitory rate of 70

// sample `CC(C)CN1CCN(C(=O)c2ccc(OCc3ccccc3)cc2)CC1` , its WIS: ulcer formation inhibitory rate was 69

Measured WIS: ulcer formation inhibitory rate of `CC(C)Cc1cc(C(=O)N2CCN(C(=O)C(C)C)CC2)ccc1OCc1ccc(F)cc1` : 56

Looking up `CC(C)Cc1cc(C(=O)N2CCN(CC(C)C)CC2)ccc1OCc1ccc(F)cc1.Cl` , I found its WIS: ulcer formation inhibitory rate recorded as 85

----------
- ASSAY SUMMARY: MTT: Cell Damaging and Protecting Effect Test
- Type: cell-based, rabbit (male Japanese White)
- TEST SETTINGS: rabbit, gastric mucosal cells, final concentration 10^-4 M, 4 hours; smaller value is better; read-out: MTT: cell damaging rate
Would you mind telling me the reported cytotoxicity at 4 h, 100 µM of each entry?
Lab book: enter the figure in %, no units written.

Form: molecule = CC(C)Cc1cc(C(=O)N2CCN(CC(C)C)CC2)ccc1OCc1ccc([N+](=O)[O-])cc1.Cl [Example 13, hydrochloride] ; cytotoxicity at 4 h, 100 µM = -66

Data point: Cc1cccc(COc2ccc(C(=O)N3CCN(CC(C)C)CC3)cc2CC(C)C)c1F.Cl [Example 12, hydrochloride] ; cytotoxicity at 4 h, 100 µM = -15

Sure, the documented cytotoxicity at 4 h, 100 µM for CC(C)CN1CCN(C(=O)c2ccc(OCc3ccc(F)cc3)c([N+](=O)[O-])c2)CC1.Cl [Example 8, hydrochloride] is -65

Value of cytotoxicity at 4 h, 100 µM reported for the molecule CC(C)Cc1cc(C(=O)N2CCN(CC(C)C)CC2)ccc1OCc1ccc(Cl)cc1 [Example 17] is -18

For CC(C)Cc1cc(CN2CCN(CC(C)C)CC2)ccc1OCc1ccc(F)cc1.Cl.Cl [Example 20, dihydrochloride] the molecule record lists cytotoxicity at 4 h, 100 µM as 45

According to the records, this molecule CC(C)CN1CCN(C(=O)c2ccc(OCc3ccccc3)cc2)CC1 [Example 3] displays cytotoxicity at 4 h, 100 µM of -16

Field cytotoxicity at 4 h, 100 µM (entry CC(C)Cc1cc(C(=O)N2CCN(CCOC(=O)c3ccc4c(c3)OCO4)CC2)ccc1OCc1ccc(F)cc1 [Example 10] ) reads 34

Item: C=C(C)Cc1cc(C(=O)N2CCN(CC(C)C)CC2)ccc1OCc1ccc(F)cc1.Cl [Example 4, hydrochloride] | cytotoxicity at 4 h, 100 µM: -67

Entry COc1ccc(COc2ccc(C(=O)N3CCN(CC(C)C)CC3)cc2CC(C)C)cc1 [Example 14] — recorded cytotoxicity at 4 h, 100 µM = 11

CC(C)Cc1cc(C(=O)N2CCN(CC(C)C)CC2)ccc1OCc1ccc(F)c(F)c1.Cl [Example 23, hydrochloride] yielded cytotoxicity at 4 h, 100 µM of 28

Measured cytotoxicity at 4 h, 100 µM of COc1cc(C(=O)N2CCN(CC(C)C)CC2)ccc1OCc1ccc(F)cc1.Cl [Example 7, hydrochloride] : -72

Documented cytotoxicity at 4 h, 100 µM of CC(C)Cc1cc(C(=O)N2CCN(CC(C)C)CC2)ccc1OCc1ccc(C#N)cc1.Cl [Example 11, hydrochloride] : -77

Notebook: CC(C)Cc1cc(C(=O)N2CCN(C(=O)C(C)C)CC2)ccc1OCc1ccc(F)cc1 [Example 6] , cytotoxicity at 4 h, 100 µM read as -29

The value of cytotoxicity at 4 h, 100 µM measured for the molecule CC(C)Cc1cc(C(=O)N2CCN(CCO)CC2)ccc1OCc1ccc(F)cc1 [Example 9] turned out to be 26

// sample CC(C)Cc1cc(C(=O)N2CCN(CC(C)C)CC2)ccc1OCc1ccccc1 [Example 16] , its cytotoxicity at 4 h, 100 µM was -98
